Just for reference, patent US8586755B2 is where these values come from.

- ASSAY SYSTEM: KCNQ2/3 channels (Homo sapiens, UniProt O43525+O43526)
- Construct: expressed in transfected cells
- TEST METHOD NOTES: Fluorescence assay using a voltage sensitive dye (fluorimetry)
- Assay type: cell-based
- CONDITION SUMMARY: CHO-K1 cells expressing KCNQ2/3 channels; retigabine 50 μM = 100%
TEST READOUT: Fluorimetry % efficacy (retigabine 50 μM = 100%)

Some solved cases for reference:
Incoming: Look up Fluorimetry % efficacy (retigabine 50 μM = 100%) with KCNQ2/3 channels (Homo sapiens, UniProt O43525+O43526) for this compound: O=C(NCc1cccs1)c1cccnc1CCCCc1cccc(C(F)(F)F)c1 [compound 21]
Outgoing: 126

Incoming: Look up Fluorimetry % efficacy (retigabine 50 μM = 100%) with KCNQ2/3 channels (Homo sapiens, UniProt O43525+O43526) for this compound: O=C(NCC1CC2CCC1C2)c1cccnc1SCCC(O)c1ccc(F)cc1 (centres unmarked) [compound 50]
Outgoing: 169

Incoming: Look up Fluorimetry % efficacy (retigabine 50 μM = 100%) with KCNQ2/3 channels (Homo sapiens, UniProt O43525+O43526) for this compound: CC(C)(C)C(O)CNC(=O)c1cccnc1SCCCc1ccc(F)cc1 (centres unmarked) [compound 126]
Outgoing: 177

A. O=C(NCc1cccs1)c1cccnc1SCCCc1ccccc1 [compound 1]
B. O=C(NCC1CC2CCC1C2)c1cccnc1SCCC(F)(F)c1ccc(F)cc1 (centres unmarked) [compound 115]
Incoming: Exercise: compare A and B ; which one has the greater Fluorimetry % efficacy (retigabine 50 μM = 100%)? Please identify the chosen entry by its label.
Outgoing: B
(B: 213%, A: 132%)

* * *

- ASSAY SYSTEM: KCNQ2/3 channels (Homo sapiens, UniProt O43525+O43526)
- Construct: expressed in transfected cells
- TEST METHOD NOTES: Fluorescence assay using a voltage sensitive dye (fluorimetry)
- Type: cell-based
- CONDITION SUMMARY: CHO-K1 cells expressing KCNQ2/3 channels; retigabine 50 μM = 100%; read-out: Fluorimetry % efficacy (retigabine 50 μM = 100%)
TEST READOUT: Emax (%)

Some solved cases for reference:
Incoming: Look up Emax with KCNQ2/3 channels (Homo sapiens, UniProt O43525+O43526) for this compound: O=C(NCC1CCCO1)c1cccnc1SCCC(F)(F)c1ccc(F)cc1 (stereo not drawn)
Outgoing: 234

Incoming: Look up Emax with KCNQ2/3 channels (Homo sapiens, UniProt O43525+O43526) for this compound: O=C(NCc1ncco1)c1cccnc1SCCCc1ccc(F)cc1
Outgoing: 193

1. CCCCCCSc1ncccc1C(=O)NCC1CC2CCC1C2 (stereo not drawn)
2. COC(CNC(=O)c1cccnc1SCCCc1ccc(F)cc1)C(C)(C)C (stereo not drawn)
Incoming: Input pair: 1 , 2 . Output: entry with lower Emax. Please identify the chosen entry by its label.
Outgoing: 2
(2: 110%, 1: 224%)

* * *

- ASSAY SYSTEM: KCNQ2/3 channels (Homo sapiens, UniProt O43525+O43526)
- Construct: expressed in transfected cells
- TEST METHOD NOTES: Fluorescence assay using a voltage sensitive dye (fluorimetry)
- Type: cell-based
- CONDITION SUMMARY: CHO-K1 cells expressing KCNQ2/3 channels; retigabine 50 μM = 100%; read-out: Fluorimetry % efficacy (retigabine 50 μM = 100%)
TEST READOUT: Emax (%)

Some solved cases for reference:
Incoming: Look up Emax with KCNQ2/3 channels (Homo sapiens, UniProt O43525+O43526) for this compound: O=C(NCCO)c1cccnc1SCCC(F)(F)c1ccc(F)cc1 [compound 211]
Outgoing: 87

Incoming: Look up Emax with KCNQ2/3 channels (Homo sapiens, UniProt O43525+O43526) for this compound: CN1CCOc2ccc(CNC(=O)c3cccnc3SCCCc3ccc(F)cc3)cc21 [compound 162]
Outgoing: 83

Incoming: Look up Emax with KCNQ2/3 channels (Homo sapiens, UniProt O43525+O43526) for this compound: Cc1cccc(CCNC(=O)c2cccnc2SCCCc2ccc(F)cc2)c1 [compound 85]
Outgoing: 59

Incoming: Look up Emax with KCNQ2/3 channels (Homo sapiens, UniProt O43525+O43526) for this compound: O=C(NCC1CC2CCC1C2)c1cccnc1SCCCc1cccc(C(F)(F)F)c1 (stereo not shown) [compound 27]
Outgoing: 210

Incoming: Look up Emax with KCNQ2/3 channels (Homo sapiens, UniProt O43525+O43526) for this compound: Cc1cc(C)cc(CNC(=O)c2cccnc2SCCC(F)(F)c2ccc(F)cc2)c1 [compound 184]
Outgoing: 23

Incoming: Look up Emax with KCNQ2/3 channels (Homo sapiens, UniProt O43525+O43526) for this compound: O=C(NCc1ccccc1O)c1cccnc1SCCCc1ccc(F)cc1 [compound 83]
Outgoing: 171

Incoming: Look up Emax with KCNQ2/3 channels (Homo sapiens, UniProt O43525+O43526) for this compound: O=C(NCCCn1cccn1)c1cccnc1SCCCc1ccc(F)cc1 [compound 135]
Outgoing: 154

Incoming: Look up Emax with KCNQ2/3 channels (Homo sapiens, UniProt O43525+O43526) for this compound: O=C(NCc1cccc(OC(F)(F)F)c1)c1cccnc1SCCCc1ccc(F)cc1 [compound 87]
Outgoing: 116

P. COc1ccc(CCCSc2ncccc2C(=O)NCC2CC3CCC2C3)cc1 (stereo not shown) [compound 56]
Q. CC(C)CCCSc1ncccc1C(=O)NCc1cccs1 [compound 5]
R. CC(CCc1ccc(F)cc1)Sc1ncccc1C(=O)NCc1ccc(F)cc1 (stereo not shown) [compound 176]
S. O=C(NCCc1ccncc1)c1cccnc1SCCCc1ccc(F)cc1 [compound 89]
Incoming: Ascending by Emax, please. Please reply with the labels ordered as requested. Many thanks.
Outgoing: S, R, Q, P

P. Cc1cc(CCCSc2ncccc2C(=O)NCc2cccs2)cc(C(F)(F)F)c1 [compound 109]
Q. Cc1ccccc1CCNC(=O)c1cccnc1SCCCc1ccc(F)cc1 [compound 86]
R. O=C(CCSc1ncccc1C(=O)NCC1CC2CCC1C2)c1ccc(F)cc1 (stereo not shown) [compound 43]
Incoming: Order the 3 compounds from highest to lowest Emax. Please reply with the labels ordered as requested. Many thanks.
Outgoing: P, R, Q

a. COc1cccc(CCCSc2ncccc2C(=O)NCC2CC3CCC2C3)c1 (stereo not shown) [compound 70]
b. CC1CCCC(CNC(=O)c2cccnc2SCCCc2ccc(F)cc2)C1 (stereo not shown) [compound 123]
c. O=C(NCc1ccc(Cl)s1)c1cccnc1SCCCc1ccc(F)cc1 [compound 37]
d. O=C(NCc1cccs1)c1cccnc1SCCCc1ccccn1 [compound 111]
e. O=C(NCc1cccs1)c1cccnc1SCCCc1ccncc1 [compound 101]
Incoming: Order the 5 compounds from highest to lowest Emax. Please reply with the labels ordered as requested. Many thanks.
Outgoing: a, b, c, d, e

* * *

- ASSAY SYSTEM: KCNQ2/3 channels (Homo sapiens, UniProt O43525+O43526)
- Construct: expressed in transfected cells
- TEST METHOD NOTES: Fluorescence assay using a voltage sensitive dye (fluorimetry)
- Format: cell-based
- CONDITION SUMMARY: CHO-K1 cells expressing KCNQ2/3 channels; retigabine 50 μM = 100%; read-out: Fluorimetry % efficacy (retigabine 50 μM = 100%)
TEST READOUT: Emax (%)

Some solved cases for reference:
Incoming: Consider the molecule shown here: O=C(NCC1CC2CCC1C2)c1cccnc1SCCCc1cccc(O)c1 (stereo not drawn) What is its recorded Emax?
Outgoing: 268

Incoming: Consider the molecule shown here: O=C(NCC1CC2CCC1C2)c1cccnc1SCCCc1cc(F)c(F)c(F)c1 (stereo not drawn) What is its recorded Emax?
Outgoing: 280

Incoming: Consider the molecule shown here: O=C(NCC1CC2CCC1C2)c1cccnc1SCCCc1ccc(C(F)(F)F)cc1 (stereo not drawn) What is its recorded Emax?
Outgoing: 204

Incoming: Consider the molecule shown here: Cc1ccnc(SCCCc2ccc(F)cc2)c1C(=O)NCCC(C)(C)C What is its recorded Emax?
Outgoing: 85

Incoming: Consider the molecule shown here: O=C(NCC1CCCCCC1)c1cccnc1CCCS(=O)(=O)c1cccc(C(F)(F)F)c1 What is its recorded Emax?
Outgoing: 98

Incoming: Consider the molecule shown here: C[C@H](CCc1ccccc1)Sc1ncccc1C(=O)NCCC(C)(C)C What is its recorded Emax?
Outgoing: 155

Incoming: Consider the molecule shown here: O=C(NCC1CC2CCC1C2)c1cccnc1SCCOc1ccc(F)cc1 (stereo not drawn) What is its recorded Emax?
Outgoing: 174

a. O=C(NCC1CC2CCC1C2)c1cccnc1SCCCc1ccccc1 (stereo not drawn)
b. Cc1cccc(CNC(=O)c2cccnc2SCCC(F)(F)c2ccc(F)cc2)c1
Incoming: Input pair: a , b . Output: entry with lower Emax. Please identify the chosen entry by its label.
Outgoing: b

* * *

- ASSAY SYSTEM: KCNQ2/3 channels (Homo sapiens, UniProt O43525+O43526)
- Construct: expressed in transfected cells
- TEST METHOD NOTES: Fluorescence assay using a voltage sensitive dye (fluorimetry)
- Type: cell-based
- CONDITION SUMMARY: CHO-K1 cells expressing KCNQ2/3 channels; retigabine 50 μM = 100%; read-out: Fluorimetry % efficacy (retigabine 50 μM = 100%)
TEST READOUT: Emax (%)

Incoming: Look up Emax with KCNQ2/3 channels (Homo sapiens, UniProt O43525+O43526) for this compound: CCN1CCOc2ccc(CNC(=O)c3cccnc3SCCCc3ccc(F)cc3)cc21 [compound 161]
Outgoing: 67

Incoming: Look up Emax with KCNQ2/3 channels (Homo sapiens, UniProt O43525+O43526) for this compound: CC(C)(C)CCNC(=O)c1cccnc1SCCC(F)(F)c1cccc(C(F)(F)F)c1 [compound 166]
Outgoing: 206

Incoming: Look up Emax with KCNQ2/3 channels (Homo sapiens, UniProt O43525+O43526) for this compound: O=C(NCc1cccc(C(F)(F)F)c1)c1cccnc1SCCCc1ccc(F)cc1 [compound 59]
Outgoing: 83

Incoming: Look up Emax with KCNQ2/3 channels (Homo sapiens, UniProt O43525+O43526) for this compound: O=C(NCc1cccc(-c2ccccn2)c1)c1cccnc1SCCCc1ccc(F)cc1 [compound 151]
Outgoing: 95

Incoming: Look up Emax with KCNQ2/3 channels (Homo sapiens, UniProt O43525+O43526) for this compound: O=C(NCc1cccc(-c2cccnc2)c1)c1cccnc1SCCCc1ccc(F)cc1 [compound 152]
Outgoing: 89

A. O=C(NCc1cccc(F)c1)c1cccnc1SCCC(F)(F)c1ccc(F)cc1 [compound 168]
B. O=C(NCC1CC2CCC1C2)c1cccnc1SCCOc1cccc(C(F)(F)F)c1 (centres unmarked) [compound 47]
Incoming: Input pair: A , B . Output: entry with lower Emax. Please identify the chosen entry by its label.
Outgoing: A
